Tested on: NCI-H460 lung
Assay: NCI-60 one-dose screen, 48 h (100 = growth as untreated, 0 = no growth, -100 = all killed)
Settings: 10 µM unless noted
About 83,000 compounds went through this panel and 20% of them were active in at least one assay; those are over-represented in the sample as a whole.
result type: growth (%)

compound=Cc1cc2c(O)c(-c3cccc(Cl)c3)c3sc(=O)oc3c2cc1C observed_measurement=24.9
compound=O=c1oc2c(cnc3ccccc32)cc1-c1ccsc1 observed_measurement=99.9
compound=Cc1ccc(-c2nc(N3CCNCC3)c3oc(-c4ccccc4)nc3n2)cc1 observed_measurement=-72.5
compound=Cc1ccc(-n2c(=S)[nH]c3sc4c(c3c2=O)CCC(=O)C4)cc1 observed_measurement=17.2
compound=CCCCCCCCn1ccc2cc(NC(=O)Cn3cc(CN4CCCCC4)nn3)ccc21 observed_measurement=-50.6
compound=O=C(O)[C@@H]1c2ccccc2-c2ccccc2[C@H]1C(=O)O observed_measurement=109
compound=Cc1nc(-c2ccccc2)cc2c(O)c(C(=O)NN)[nH]c(=O)c12 observed_measurement=106
compound=CCCNC(=O)Oc1ccc(/C(=C(/C)Cc2ccc(OC)cc2)c2ccc(OCCCN(C)C)cc2)cc1 observed_measurement=73.3
compound=Cc1cc(N)c2cc(NC(=O)/C=C\c3ccccc3Cl)ccc2n1 observed_measurement=-78.3
compound=COc1cnc2c(c1)C(=O)c1c-2n(CCCNCCO)c(=O)c2ccncc12 observed_measurement=-41.6

###

System: 786-0 renal
Assay: NCI-60 one-dose screen, 48 h
Conditions: 10 µM unless noted
About 83,000 compounds went through this panel and 20% of them were active in at least one assay; those are over-represented in the sample as a whole. The source made the active and inactive calls. How the source made its calls: active means growth percent below 10; inactive means the rest.
Classes used: yes for active, no for inactive

molecule=C=C1C(=O)O[C@H]2[C@H]1CC/C(COC(=O)N[C@H]1C[C@H](O[C@H]3C[C@](O)(C(=O)CO)Cc4c(O)c5c(c(O)c43)C(=O)c3c(OC)cccc3C5=O)O[C@@H](C)[C@H]1O)=C\CC[C@@]1(C)O[C@@H]21 assayed_system="786-0 renal" group_label=no
molecule="COc1cccc(CNc2ncnc3c2ncn3C2OC(CO)C(O)C2O)c1O (stereo not drawn)" assayed_system="786-0 renal" group_label=yes
molecule=CCN(CC)c1nc(SCc2ccccc2Cl)ncc1C assayed_system="786-0 renal" group_label=no
molecule=C#Cc1cccc(Nc2ncnc3ccc(-c4cnc(N)nc4)cc23)c1 assayed_system="786-0 renal" group_label=no
molecule=Oc1c(Cl)cc(Cl)cc1/C=N/Nc1nnc(N/N=C/c2cc(Cl)cc(Cl)c2O)c2ccccc12 assayed_system="786-0 renal" group_label=yes
molecule=O=C(CSc1nc2ccc([N+](=O)[O-])cc2[nH]1)Nc1cccc(C(F)(F)F)c1 assayed_system="786-0 renal" group_label=no
molecule=C#CCOc1cccc(Nc2ncnc3c(NC(=O)C=C)cccc23)c1 assayed_system="786-0 renal" group_label=no
molecule=CN(C)C1CCN(Cc2ccc(NC(=O)c3cncc(C#Cc4cnc(N)c5ncccc45)c3)cc2C(F)(F)F)CC1 assayed_system="786-0 renal" group_label=yes
molecule=C#Cc1cccc(Nc2ncnc3ccc(-c4cncc(NS(C)(=O)=O)c4)cc23)c1 assayed_system="786-0 renal" group_label=no
molecule=O=C1Nc2ccccc2[C@]12CC(c1ccccc1)=NN2 assayed_system="786-0 renal" group_label=no
molecule=COc1ccc(-c2nn(-c3ccccc3)cc2/C=C2/SC(=S)N(C)C2=O)cc1 assayed_system="786-0 renal" group_label=yes
molecule=COC(=O)/C(CCC=C(C)C)=C1\[C@@H](OC(C)=O)C[C@@]2(C)[C@H]1C[C@@H](O)[C@H]1[C@@]3(C)CC[C@H](NCCN)[C@@H](C)[C@@H]3CC[C@@]12C assayed_system="786-0 renal" group_label=no
molecule="CCc1ccc(C(=O)/C=C/C23c4ccccc4C(c4ccccc42)C2C(=O)NC(=O)C23)cc1 (stereo not drawn)" assayed_system="786-0 renal" group_label=yes
molecule=O=[N+]([O-])c1ccc(-c2nc(N3CCOCC3)c3c4c(sc3n2)CCCC4)cc1 assayed_system="786-0 renal" group_label=no
molecule="OCCCC1CCN(C(Cc2ccccc2)c2ccccc2)CC1 (stereo not drawn)" assayed_system="786-0 renal" group_label=no
molecule=CN(C)CC(=O)Nc1ccc2ncnc(Nc3ccc(Oc4cccc(C(F)(F)F)c4)c(Cl)c3)c2c1 assayed_system="786-0 renal" group_label=no
molecule=Brc1c2c(c(Br)c3ccccc13)CCCC2 assayed_system="786-0 renal" group_label=no
molecule=COc1cccc(NC(=O)Cn2cc(CN3CCN(c4ccnc5cc(Cl)ccc45)CC3)nn2)c1 assayed_system="786-0 renal" group_label=no
